- TEST SYSTEM: AURKA (Homo sapiens, UniProt O14965)
- Construct: the catalytic domain of human AURKA (amino acids 122–430); His-tag followed by TEV protease cleavage site (N); pETM11)
- Sequence (O14965 122-403 limits assumed): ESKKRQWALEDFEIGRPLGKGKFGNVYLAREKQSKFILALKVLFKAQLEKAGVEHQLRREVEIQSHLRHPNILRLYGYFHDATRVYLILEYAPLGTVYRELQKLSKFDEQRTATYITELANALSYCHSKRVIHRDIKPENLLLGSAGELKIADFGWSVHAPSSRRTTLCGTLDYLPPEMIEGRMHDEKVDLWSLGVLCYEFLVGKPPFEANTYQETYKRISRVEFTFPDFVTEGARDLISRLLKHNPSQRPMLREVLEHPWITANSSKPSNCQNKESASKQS
- ASSAY SUMMARY: SPR binding kinetics on immobilized AURKA
- CONDITION PARAMETERS: 25 °C, flow rate 150 μL/min, koff/kon
MEASURE NAME: pKd
# reply with the number alone; pKd is -log10 of concentration in mol/L

The compound O=C(c1cccc(Cl)c1F)N1CCN(Cc2cccc(Nc3nccs3)n2)CC1 [MK8754, MK8745] , tested on AURKA (Homo sapiens, UniProt O14965), showed pKd of 8.81
